- measurement protocol: Substrate specificity of WNanoKAZ mutants, crude enzyme solution (Example 11)
- Type: biochemical
- condition summary: Imax
observation type: Relative luminescence activity, f-CTZ, Imax

molecule	assay value
WNanoKAZ-E115P: WNanoKAZ with substitution of proline for glutamic acid at position 115; SEQ ID NO: 10 (protein) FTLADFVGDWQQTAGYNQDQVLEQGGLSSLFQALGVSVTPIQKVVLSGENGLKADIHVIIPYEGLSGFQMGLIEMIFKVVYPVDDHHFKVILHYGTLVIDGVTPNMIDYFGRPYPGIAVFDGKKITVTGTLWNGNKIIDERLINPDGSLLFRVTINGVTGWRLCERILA	22
